// data source = the supplement of paper PMC9170038

Tested on: K4 kissing-loop RNA reporter;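 also: bound reporter read as fluorescence of individual clusters on recovered sequencing chips by microscopy, with normalized cluster intensities fitted with a binding model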
protocol details: apparent KD of K4 kissing-loop reporter; higher = weaker reporter binding
applied conditions: Eterna round: R107; input ligand: none
Mark 1 for reported apparent KD of K4 kissing-loop reporter of 100 nM or greater; mark -1 for anything smaller.

[
  {
    "chain": "UGGAGUUGACGAAAAGUCAACUCCUGGGAAGGAGCGGACGAAAGUCCAGGUAGGUCGCUCACUACCAGUGAUGUUGGUACUUAAA",
    "assigned class": 1
  },
  {
    "chain": "GAAAGAAAGUAUGAUACCAGACACCCGAGUGAUGUUCGGAGCAGAGUGAUGUUCUUUUAAGUCCCUUGGCAGCAUAAAAGAAAAG [whbob_SS_Theo_B_sa83]",
    "assigned class": 1
  },
  {
    "chain": "UGAUACCAGACGGCCGCCACUCCCGCAGGUCAAAGACCUGCGAAGCUGGUUCUUCAGUGAUGUUGGAGGACCGGGUCUGGUAUCU [FiskerMod 24 - Jieux - Exclusion - Tryptophan B]",
    "assigned class": 1
  },
  {
    "chain": "GCCUAGGCUCGAAAGAGCCUAGGCUUUACUCAGGAUAUCUGGAAACAGAGAAGGGAGCUACUAGUGAUGUUAGGAAUUCCCUAAG",
    "assigned class": 1
  },
  {
    "chain": "AGAACUGUCUGAGAUACCAGCCAGGAAGUGAUGUUUCCAGCUCCACGAAAGUGGAGCCAUGGCCCUUGGCAGCUCAGACAGUUCA [Omei KL Theo B SS A v5]",
    "assigned class": 1
  },
  {
    "chain": "GCCGUACGCAUGGAUACCAGCAAUAUGCUACGUUGUAGUAGUAUAACCAGUGAUGUUGGAUGCCCUUGGCAGCCAUGCGUACGGC",
    "assigned class": 1
  },
  {
    "chain": "AAGUCAUAGGCAGGAUAUGCUUAGUAUUAAGGCCAUAUAUACGUAUAGAGUGAUGUUUUGUACCAGGCAGAAGGGCUACAUCAGU [FMN B Excl V6 (+A)]",
    "assigned class": 1
  },
  {
    "chain": "CCGAAGAACCAGUGAUGUUGGUUGACUAGACAGGAUAUGAGCAACAUCAGAAGGGUCUGGCUUCGGGAGUGGGUUGCGCUGACCU [Onbizaes]",
    "assigned class": 1
  },
  {
    "chain": "AAAGAUGCGUCGGCCGCCACUGUGAUCUACGAAAGUAGUAUGUAGAUGCAGUGAUGUUGCAUUUUCAGGACCGGGACGUAAGAUG [3rd]",
    "assigned class": 1
  },
  {
    "chain": "AAUUUUAAUCAUAAAUAAUAAAUAAAUGAUACCAGUAUUUUUUUUUACCCUUGGCAGCGUAUAUAAGGGCAGUGAUGUUGUCAGA [whbob_SS_Theo_A_w60]",
    "assigned class": 1
  },
  {
    "chain": "AAAUAAAAGGCGGCCGCCACUGAACGCCUCCGCGUGGGUAUAUAGUGAUGUUAUAUGGCCGCCUUCAGGACCGGGCCAAAUAAAA [AstrosSSTryB#1]",
    "assigned class": 1
  },
  {
    "chain": "UGACAUUGCUCAGAUACCAGACAUGAGCAUCAGCCAUGUACCAAGAAAGUACAAUAAAAUGUCCCUUGGCAGCUGAGCAAUGUCU [TheoBX 8]",
    "assigned class": -1
  },
  {
    "chain": "GGGAAGGACGGAGGAUAUGCACUGAGGAGGAGAAUAUAGUGAUGUUAUAUAAGAGGAAGGAGCUGAGUAGAAGGCCGAGGAAAGG [whbob_SS_FMNB__2th207]",
    "assigned class": 1
  },
  {
    "chain": "UGUUAUGUAUCAGGAUAUUAGUGAUGUUUGUUGAUGUUAGUGAUGUUGAUAUUUGUUUUAUGUAUUUAAGAAGGGAUUGAGAUGU [ooilmullin]",
    "assigned class": -1
  },
  {
    "chain": "CUUGAUGUAGCGGCCGCCACUCUAGAUCCGCAUCGGAUGAGGUACUUGAAGUGAUGUUUUGAGGUGAGGACCGGGCUCUAAAGAA [theeternabot_sameState_KL_Trp_B_16]",
    "assigned class": 1
  },
  {
    "chain": "UAGGAGUGAUGUUCCAUAUGUAAGGCCGAAGGAGCGGCAUUAUAGCCAGGUAGGUCGCGGCAGUACGUACCAGUGAUGUUGGAAA [KL-SSArg-A5]",
    "assigned class": 1
  },
  {
    "chain": "AUUAAUUUCAGAGGAUAUCGUUAUUUUUUUAAGUAUAAUCUAUUAUGCAGUGAUGUUGCUAUUAAUCGAGAAGGCUGAUUUAUAA [JR_ExcFMNB_Sub001]",
    "assigned class": -1
  },
  {
    "chain": "AUUUAGACGAGUGAUGUUCGUGAUUUUUCAGAGGAUAUGCGUAAUAGCAGAAGGCUGUAUUUAUAUAUAUUUUGAUUUUUUUAAA [JR_ExcFMNA_Sub009]",
    "assigned class": -1
  },
  {
    "chain": "CGGAGUCGCGGAAGGAGCGCUCGAUAGACAAGUUGAUCGUGCCGUGGUCGAGUGAUGUUCGAGCAGGUAGGUCGCCGUCGGUCCC [Cexeatedma]",
    "assigned class": 1
  },
  {
    "chain": "AACGUUUUGAGAAGGAGCGCGUUAAGCAGUGAUGUUGCUUUAUUUUAUCAAAUACAUAUAUCGCAGGUAGGUCGCUCAAUACGUA [JR_Nu_SSArginiB_Sub026]",
    "assigned class": 1
  },
  {
    "chain": "GCAGGCGUAAAAGGAUAUCAGGCUCUCUAGACACGAGUGAUGUUUGUGUAGGUAACGUAAUAGGCAUGAGAAGGUUUCACUUAAA [theeternabot_sameState_KL_FMN_B_49]",
    "assigned class": 1
  },
  {
    "chain": "AGCAAUAUCACGGCCGCCACUGAAUAUUGUUUUUAUAUUUAGAAAUCUUGCCAGUGAUGUUGGUUCAGGACCGGGUGAGUUAAUA [JR_SSTryptoB_Sub005]",
    "assigned class": 1
  },
  {
    "chain": "AUUAUAUUGUGAAGGAGCGCGCAUAGUAGUGAUGUUACUAUGACAUAUCUUAUUUAAUUCUCGCAGGUAGGUCGCACAUUAUAUA [JR_Nu_ExcArginiB_Sub026]",
    "assigned class": -1
  }
]
